# reported glycan array binding signal (z-score); entries follow
tgt: Man(a1-3)[Man(a1-6)]Man(a1-6)[Man(a1-2)Man(a1-3)]Man(b1-4)GlcNAc(b1-4)GlcNAc
test name: glycan array binding signal (z-score within array); higher = stronger binding
experimental context: glycan notation: IUPAC condensed, linker removed
About 410 targets per protein were measured; listed, in parts, are those with the strongest signals and a random draw of the rest.
measurement kind: glycan array binding signal (z-score)

{"binder": "MVL (Microcystis viridis), Q9RHG4 (protein) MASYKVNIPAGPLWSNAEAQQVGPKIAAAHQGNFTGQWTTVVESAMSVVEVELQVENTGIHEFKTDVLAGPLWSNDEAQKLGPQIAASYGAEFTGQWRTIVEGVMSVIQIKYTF", "observed result": 2.68}
{"binder": "UDA (Urtica dioica), P11218 (protein) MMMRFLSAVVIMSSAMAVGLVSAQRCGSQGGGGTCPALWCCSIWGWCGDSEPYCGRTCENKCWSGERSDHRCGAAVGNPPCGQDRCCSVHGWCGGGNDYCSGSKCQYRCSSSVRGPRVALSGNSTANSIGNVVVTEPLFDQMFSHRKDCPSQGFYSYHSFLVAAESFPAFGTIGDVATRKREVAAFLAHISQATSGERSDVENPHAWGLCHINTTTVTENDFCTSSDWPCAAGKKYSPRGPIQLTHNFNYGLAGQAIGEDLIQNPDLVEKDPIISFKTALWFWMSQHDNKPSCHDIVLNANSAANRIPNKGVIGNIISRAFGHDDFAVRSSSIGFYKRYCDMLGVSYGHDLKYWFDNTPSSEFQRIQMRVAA", "observed result": 10.8}
{"binder": "CPA (Cicer arietinum) (protein) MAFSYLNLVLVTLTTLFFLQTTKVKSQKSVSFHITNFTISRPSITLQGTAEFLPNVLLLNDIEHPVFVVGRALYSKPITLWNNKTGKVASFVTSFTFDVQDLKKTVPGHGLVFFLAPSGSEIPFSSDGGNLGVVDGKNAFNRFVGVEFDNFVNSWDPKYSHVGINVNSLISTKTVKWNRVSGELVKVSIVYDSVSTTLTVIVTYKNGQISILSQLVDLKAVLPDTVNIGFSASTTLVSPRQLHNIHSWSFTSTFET", "observed result": 4.19}
